src = paper PMC5540273

- System: p38-beta;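 further: KINOMEscan kinase panel screen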
- Construct: gene MAPK11
- conditions: concentration: 1 μM,replicates: in singlicate; n = 1
property: %Inh (%)

>>> numeric_value("COc1ccc(Nc2nccc(N3CCC(NC(=O)c4cccc(C#N)c4)C3)n2)cc1 (centres unmarked)")
0
>>> numeric_value("O=C1NCCc2[nH]c(-c3ccncc3)cc21")
27
>>> numeric_value("COc1cc(Nc2nccc(N3CCC(NC(=O)c4cccc(C#N)c4)C3)n2)cc(OC)c1OC (centres unmarked)")
0
>>> numeric_value("O=C(Nc1cccc(C(F)(F)F)c1)c1cccc(Oc2ccc3nccn3n2)c1")
0
>>> numeric_value("CCn1c(-c2nonc2N)nc2cncc(CNC3CCNCC3)c21.Cl")
0
